- System: Haemophilus influenzae ATCC 49766
- protocol-details: MIC determination
- Format: cell-based
- condition-description: Haemophilus influenzae, ATCC49766, 18 h, read-out: Minimum inhibitory concentrations (MIC)
Kindly state MIC for each of the entries shown.
Numbers only; they are read as µg/mL.

query: Lab note: need MIC for `COc1cc(Cc2cnc(N)nc2N)cc(OC)c1OC` on Haemophilus influenzae ATCC 49766, anyone have it?
result: 0.5

query: Request - read-out MIC | tested on Haemophilus influenzae ATCC 49766 | compound `CN[C@H](CC(C)C)C(=O)N[C@H]1C(=O)N[C@@H](CC(N)=O)C(=O)N[C@H]2C(=O)N[C@H]3C(=O)N[C@H](C(=O)N[C@H](C(=O)O)c4cc(O)cc(O)c4-c4cc3ccc4O)[C@H](O)c3ccc(c(Cl)c3)Oc3cc2cc(c3O[C@@H]2O[C@H](CO)[C@@H](O)[C@H](O)[C@H]2O[C@H]2C[C@](C)(N)[C@H](O)[C@H](C)O2)Oc2ccc(cc2Cl)[C@H]1O`
result: 128

query: Recorded MIC for `CN(C)[C@@H]1C(O)=C(C(N)=O)C(=O)[C@@]2(O)C(O)=C3C(=O)c4c(O)cccc4[C@@](C)(O)[C@H]3C[C@@H]12` with Haemophilus influenzae ATCC 49766, please?
result: 0.5

query: Which MIC is reported with Haemophilus influenzae ATCC 49766 for this entry: `C=C(NC(=O)C(=C)NC(=O)c1csc(C2=N[C@@H]3c4csc(n4)[C@H]4NC(=O)c5csc(n5)[C@H]([C@](C)(O)[C@@H](C)O)NC(=O)[C@H]5CSC(=N5)/C(=C/C)NC(=O)[C@H]([C@@H](C)O)NC(=O)c5csc(n5)[C@]3(CC2)NC(=O)[C@H](C)NC(=O)C(=C)NC(=O)[C@H](C)NC(=O)[C@H]([C@@H](C)CC)N[C@@H]2C=Cc3c([C@H](C)O)cc(nc3[C@H]2O)C(=O)O[C@@H]4C)n1)C(N)=O` ?
result: 32

query: Which MIC is reported with Haemophilus influenzae ATCC 49766 for this entry: Cc1cc(NS(=O)(=O)c2ccc(N)cc2)no1 [Sulfamethoxazole, N1-(5-methyl-3-isoxazolyl)sulfanilamide] ?
result: 128

----------
- Tested on: Streptococcus pneumoniae ATCC 49619
- protocol-details: MIC determination
- Format: cell-based
- condition-description: Streptococcus pneumoniae, ATCC49619; S. pneumoniae 49619; 18 hours at 37° C., 5% CO2; read-out: Minimum inhibitory concentrations (MIC)
Assignment: determine reported log10 of MIC for the given compounds.
Hey, these are logged values: log10 of MIC, µg/mL being the unit before logging.

query: Record lookup: for Streptococcus pneumoniae ATCC 49619, what log10 of MIC belongs to `C[C@@H]1O[C@@H]1P(=O)(O)O` ?
result: 1.51

query: Missing value: log10 of MIC, Streptococcus pneumoniae ATCC 49619, entry `CC[C@H]1OC(=O)[C@H](C)[C@@H](O[C@H]2C[C@@](C)(OC)[C@@H](O)[C@H](C)O2)[C@H](C)[C@@H](O[C@@H]2O[C@H](C)C[C@H](N(C)C)[C@H]2O)[C@](C)(O)C[C@@H](C)C(=O)[C@H](C)[C@@H](O)[C@]1(C)O` . Fill in?
result: -0.90

query: Notebook entry, Streptococcus pneumoniae ATCC 49619 assay: log10 of MIC of CCn1cc(C(=O)O)c(=O)c2cc(F)c(N3CCNC(C)C3)c(F)c21 (stereo not drawn) = ?
result: 0.90

query: # value lookup — system Streptococcus pneumoniae ATCC 49619, readout log10 of MIC, item `CO[C@@H]1[C@@H](OC(N)=O)[C@@H](O)[C@H](Oc2ccc3c(O)c(NC(=O)c4ccc(O)c(CC=C(C)C)c4)c(=O)oc3c2C)OC1(C)C`
result: 0.30

query: Query log10 of MIC on Streptococcus pneumoniae ATCC 49619 for `CC1(C)S[C@@H]2[C@H](NC(=O)[C@H](N)c3ccccc3)C(=O)N2[C@H]1C(=O)O`
result: -0.30

query: Look up log10 of MIC with Streptococcus pneumoniae ATCC 49619 for this compound: `NC(=O)c1cc[n+](CC2=C(C(=O)O)N3C(=O)[C@@H](NC(=O)[C@@H](c4ccccc4)S(=O)(=O)[O-])[C@H]3SC2)cc1`
result: 1.20
